tested on: SK-OV-3; experiment: NCI tumour cell line growth inhibition, 48 h
Calls of active or inactive are those of the source. Cut-off read from the data, not from the text of the source: active = GI50 up to about 1.1 µM and inactive = higher.
Outcomes: active, inactive

molecule | class label
COc1ccc(CNc2nc(NCc3ccc(OC)cc3)nc(NC3CCCCC3)n2)cc1 | inactive
Cc1ccccc1SC(/C=C/NNC1=NN=C(c2ccccc2)C(c2ccccc2)N1)c1ccccc1 (stereo unspecified) | inactive
O=C(O)CNC(=O)c1ccc(-c2ccccc2)cc1 | inactive
Brc1ccc(/N=C/C=C(\Nc2ccc(Br)cc2)C23CC4CC(CC(C4)C2)C3)cc1 | inactive
COc1cc(S(=O)(=O)Nc2nc(-c3ccc(N4C(=O)C(CC(=O)O)SC4c4ccccc4O)cc3)cs2)ccc1Cl (stereo unspecified) | inactive
O=C1C[C@@H]2[C@@H](CCC23CC3)N1 | inactive
Nc1ncnc2c1nnn2C1OC(CO)C(O)C1O (stereo unspecified) | active
C1CN(c2nnc(N3CCC3)nn2)C1 | inactive
c1cc(C[S+]2CCCC2)oc1C[S+]1CCCC1 | inactive
O=c1c2cc([N+](=O)[O-])ccc2n2n1Cc1ccccc1C2 | inactive
N#CN=C(NCc1ccccc1)NCc1ccccc1 | inactive
